- EXPERIMENTAL PROTOCOL: Aqueous solubility of the compound
- Type: physicochemical
- CONDITION SET: aqueous (not further specified)
MEASUREMENT TYPE: solubility

1) O=c1c2c([nH]c3ccc(-c4ccc(C(F)(F)F)cc4)cc13)CCSC2	2 µM

----------
- SYSTEM NAME: Voltage-gated inwardly rectifying potassium channel KCNH2 (Homo sapiens, UniProt Q12809)
- Sequence (Q12809 whole entry): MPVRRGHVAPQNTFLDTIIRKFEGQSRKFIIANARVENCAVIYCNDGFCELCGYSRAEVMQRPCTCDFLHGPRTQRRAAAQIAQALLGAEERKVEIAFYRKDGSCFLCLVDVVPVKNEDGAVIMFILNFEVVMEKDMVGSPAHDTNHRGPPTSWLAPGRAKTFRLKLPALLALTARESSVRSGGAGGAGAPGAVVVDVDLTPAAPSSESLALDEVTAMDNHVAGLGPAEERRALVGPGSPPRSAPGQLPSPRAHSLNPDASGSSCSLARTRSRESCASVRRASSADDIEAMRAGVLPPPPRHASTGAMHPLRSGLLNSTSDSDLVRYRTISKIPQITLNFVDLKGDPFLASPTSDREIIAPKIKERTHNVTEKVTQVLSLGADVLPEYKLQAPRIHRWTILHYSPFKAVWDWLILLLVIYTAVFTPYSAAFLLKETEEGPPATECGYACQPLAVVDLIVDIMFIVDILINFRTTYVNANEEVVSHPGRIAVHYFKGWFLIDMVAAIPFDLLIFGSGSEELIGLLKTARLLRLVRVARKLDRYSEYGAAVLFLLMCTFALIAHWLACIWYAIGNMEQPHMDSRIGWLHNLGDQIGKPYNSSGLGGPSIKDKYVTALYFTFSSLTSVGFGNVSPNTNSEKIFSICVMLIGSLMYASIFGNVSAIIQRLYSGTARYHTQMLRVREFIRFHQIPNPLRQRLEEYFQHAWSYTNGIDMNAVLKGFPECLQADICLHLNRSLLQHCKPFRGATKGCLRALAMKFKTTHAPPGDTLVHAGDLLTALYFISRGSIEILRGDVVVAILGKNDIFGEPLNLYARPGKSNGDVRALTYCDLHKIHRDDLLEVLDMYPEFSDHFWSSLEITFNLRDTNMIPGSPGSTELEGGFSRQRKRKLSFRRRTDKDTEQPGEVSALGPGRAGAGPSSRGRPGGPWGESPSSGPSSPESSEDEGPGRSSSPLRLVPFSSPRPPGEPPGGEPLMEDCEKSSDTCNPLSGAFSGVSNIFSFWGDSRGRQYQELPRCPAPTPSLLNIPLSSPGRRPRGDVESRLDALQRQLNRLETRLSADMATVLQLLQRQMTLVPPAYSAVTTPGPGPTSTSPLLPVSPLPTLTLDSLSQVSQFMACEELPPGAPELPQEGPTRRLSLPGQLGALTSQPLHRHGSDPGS
pIC50: −log10 of the molar value.
MEASUREMENT TYPE: pIC50

1. CC1(C)c2nc(-c3ccc(F)cc3)c(Nc3ccc(Cl)cc3)n2CCN1C(=O)CN	5.14

----------
- EXPERIMENTAL PROTOCOL: Half life in mouse liver microsomes
- Assay type: ADME, Microsome
MEASUREMENT TYPE: half-life

1. O=c1c2c([nH]c3ccc(-c4ccc(C(F)(F)F)cc4)cc13)CCSC2	> 3 h
